Source of measurements: patent US20260053834A1

Listed below: IC50 values for each entry.
Test system: LAPC4 prostate cancer cells, which express the AKT1 E17K allele
Assay: Antiproliferative effects in LAPC4 cells (CellTiter Glo, 72 h)
Type: cell-based
Settings: Homo sapiens, LAPC4, 72 h, read-out: LAPC4 proliferation IC50: GeoMean IC50
Method: Antiproliferative effects in LAPC4 cells. […] After 72 h, intracellular ATP content was assessed with CellTiter Glo reagent (Promega) according to the manufacturer's instructions. IC50 values were calculated by fitting luminescence values to a log(inhibitor) vs. response Hill equation.
metric.name: IC50

>>> assay_result("Nc1ncccc1-c1nc2ccc(-c3ccccc3)nc2n1-c1ccc2c(c1)CC[C@@H]2NC(=O)c1cnn2ccc(O)c(C=O)c12 [Example 54]")
"≥ 2000 nM"
>>> assay_result("Nc1ncccc1-c1nc2ccc(-n3cccn3)nc2n1-c1ccc2c(c1)CC[C@@H]2NC(=O)c1cccc(C=O)c1 [Example 142]")
"100 to 2000 nM"
>>> assay_result("Nc1ncccc1-c1nc2ccc(-n3cccn3)nc2n1-c1ccc2c(c1)C1CC1C2NC(=O)c1ccc(O)c(C=O)c1 (stereo not shown) [Example 252]")
"100 to 2000 nM"
>>> assay_result("Nc1ncccc1-c1nc2ccc(-n3cccn3)nc2n1-c1cc(F)c2c(c1)CC[C@@H]2NC(=O)c1ccc(O)c(C=O)c1 [Example 189]")
"≥ 2000 nM"
>>> assay_result("COc1cc(F)c(C(=O)N[C@H]2CCc3cc(-n4c(-c5cccnc5N)nc5ccc(-n6cccn6)nc54)ccc32)cc1C=O [Example 236]")
"100 to 2000 nM"
>>> assay_result("CN1CCN(c2ccc3nc(-c4cccnc4N)n(-c4ccc5c(c4)CC[C@@H]5NC(=O)c4ccc(O)c(C=O)c4)c3n2)CC1 [Example 38]")
"100 to 2000 nM"
>>> assay_result("Nc1ncccc1-c1nc2ccc(-c3cnn(C4CC4)c3)nc2n1-c1ccc2c(c1)CC[C@@H]2NC(=O)c1ccc(O)c(C=O)c1 [Example 62]")
"100 to 2000 nM"
>>> assay_result("Nc1ncccc1-c1nc2c(N3CCOCC3)cc(-n3cccn3)nc2n1-c1ccc2c(c1)CC[C@@H]2NC(=O)c1ccc(O)c(C=O)c1 [Example 224]")
"10 to 100 nM"
>>> assay_result("Nc1ncccc1-c1nc2ccc(-n3cccn3)nc2n1-c1ccc2c(c1)CC[C@@H]2NC(=O)c1cc(C=O)c(O)c(OC(F)F)c1 [Example 168]")
"100 to 2000 nM"
>>> assay_result("Nc1ncccc1-c1nc2ccc(-n3ccc(F)n3)nc2n1-c1ccc2c(c1)CC[C@@H]2NC(=O)c1ccc(O)c(C=O)c1 [Example 75]")
"100 to 2000 nM"
>>> assay_result("Nc1ncccc1-c1nc2ccc(-n3cccn3)nc2n1-c1ccc2c(c1)C(=O)C[C@@H]2NC(=O)c1ccc(O)c(C=O)c1 [Example 85]")
"≥ 2000 nM"
>>> assay_result("Nc1ncccc1-c1nc2ccc(-c3ccccc3)nc2n1-c1ccc2c(c1)CC[C@@H]2NC(=O)c1ccc(C=O)c(O)c1F [Example 31]")
"100 to 2000 nM"
>>> assay_result("Nc1ncccc1-c1nc2ccc(-c3ccccc3)nc2n1-c1ccc2c(c1)CC[C@@H]2NC(=O)c1ccc(NC(=O)C(F)F)c(C=O)c1 [Example 52]")
"10 to 100 nM"
